Examples of binders with documented hGLPIR cAMP EC50 ratio follow.
- Subject Of Test: human GLP-1 receptor (human, UniProt P43220 24-463)
- Test Description: cell-based or functional assay

INSERT INTO assay_data (binder, measurement_type, observed_result) VALUES
  ('YXEGTXTSDYSIXLDEKAQXEFIPYLIEGGPSSGAPPPS (Aib2; αMeF(2F)6; αMeL13; K17((2-[2-(2-Amino-ethoxy)-ethoxy]-acetyl)2-(γGlu)-CO-(CH2)18-CO2H); Aib20; C-terminal NH2) [Peptide 151]', 'hGLPIR cAMP EC50 ratio', 0.0278),
  ('YXEGTXTSDYSIXLDHKAQXEFIXYLIEGGPSSGAPPPS (Aib2; αMeF(2F)6; αMeL13; K17((2-[2-(2-Amino-ethoxy)-ethoxy]-acetyl)2-(γGlu)-CO-(CH2)18-CO2H); Aib20; D-Glu24; C-terminal NH2) [Peptide 230]', 'hGLPIR cAMP EC50 ratio', 0.599),
  ('YXEGTXTSDQSIXLDEKAQXEFIXYLIEGGPSSGAPPPS (Aib2; αMeF(2F)6; αMeL13; K17((2-[2-(2-Amino-ethoxy)-ethoxy]-acetyl)2-(γGlu)-CO-(CH2)18-CO2H); Aib20; D-Glu24; C-terminal NH2) [Peptide 187]', 'hGLPIR cAMP EC50 ratio', 0.702),
  ('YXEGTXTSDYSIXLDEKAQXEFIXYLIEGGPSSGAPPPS (Aib2; αMeF(2F)6; αMeL13; K17((2-[2-(2-Amino-ethoxy)-ethoxy]-acetyl)2-(γGlu)-CO-(CH2)16-CO2H); Aib20; D-Glu24; C-terminal NH2) [Peptide 221]', 'hGLPIR cAMP EC50 ratio', 0.795);

Shifting focus to the binder that follows.
Read the entry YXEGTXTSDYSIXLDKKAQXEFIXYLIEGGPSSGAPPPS (Aib2; αMeF(2F)6; αMeL13; K17((2-[2-(2-Amino-ethoxy)-ethoxy]-acetyl)-(γGlu)-(2-[2-(2-Amino-ethoxy)-ethoxy]-acetyl)-CO-(CH2)18-CO2H); Aib20; D-Glu24; C-terminal NH2) [Peptide 211] and write its reported hGLPIR cAMP EC50 ratio.
1.28
